Cited source for all entries: ChEMBL document CHEMBL1158241

Assay: Cytotoxicity against human Hep3B cells at >20 […] by MTT assay
Format: cell-based
Details: hep 3b2
result_type: Activity

// solved cases for Activity follow
[
  {
    "smiles_record": "COc1c(C(=O)O)c2c(c3ccccc13)OC(C)(C)C=C2",
    "Activity": "Not Active"
  },
  {
    "smiles_record": "COC(=O)c1c(OC)c2ccccc2c2occc12",
    "Activity": "Not Active"
  },
  {
    "smiles_record": "COC(=O)c1c2c(c3ccccc3c1O)OC(C)(C)C=C2",
    "Activity": "Not Active"
  },
  {
    "smiles_record": "COC(=O)c1c2c(c3ccccc3c1OCc1ccccc1)OC(C)(C)C=C2",
    "Activity": "Not Active"
  }
]

Now consider the entry below.
Qu. What measured Activity goes with COC(=O)c1c2c(c3ccccc3c1OC)OC(C)(C)C=C2 ?
Ans. Not Active

====

Test: Cytotoxicity against human Hep3B cells by MTT assay
Assay type: cell-based, Hep 3B2
Mark MET only for CC50 values smaller than 10 µg/mL; exact matches and larger values are NOT MET.

Here are 4 molecules together with their reported answers.
[
  {
    "molecule": "COC(=O)c1c(O)c2ccccc2c2occc12",
    "class_assignment": "NOT MET"
  },
  {
    "molecule": "COC(=O)c1c(O)c2ccccc2c2oc(=O)ccc12",
    "class_assignment": "MET"
  },
  {
    "molecule": "COC(=O)c1c(OC)c2ccccc2c2oc(=O)ccc12",
    "class_assignment": "NOT MET"
  },
  {
    "molecule": "COC(=O)c1c2c(c3ccccc3c1OC)OC(C)(C)CC2 [DIHYDROMOLLUGIN METHYL ETHER]",
    "class_assignment": "MET"
  }
]

Qu. CC50 strictly < 10 µg/mL for this molecule? COC(=O)c1c2c(c3ccccc3c1O)OC(C)(C)CC2 [DIHYDROMOLLUGIN]
Ans. MET
